Hello, the source for this data is the supplement of paper PMC9732359, in case you need it.

- assay: protein stability index of a GFP-peptide fusion (yeast GPS) (PSI 1-4); higher = more stable; sorted into four equal gates, so the index is relative within each strain
- protocolConditions: doa10∆
Rule: protein stability index under 3 gives NOT MET, otherwise MET.

chainSequence	categoryLabel
NLSSTPMETLLSGLSAD [YML031W/NDC1]	NOT MET
LNSLTNLLSKRNQEKKM [SNM1]	NOT MET
DDDLFETLVLSYFSPIN [YCG1]	NOT MET
TLEDKFLLLAVNKYGLR [ISW2]	NOT MET
DQLAVSPEQIDASPDSL [YCS4]	NOT MET
DSRKNREQSSNDSETHT [BRN1]	MET
HIEKLENEFVVLLDARD [CDC53]	MET
DLSTLVHSSSPSTSSNM [GAL11]	NOT MET
SNAVTQTNIWEENWDDV [SEM1]	MET
MSDAVTIRTRKVISNPL [RPS24A]	NOT MET
LAYSKIVNGQTFSYVDS [YMR129W/POM152]	NOT MET
RASLVPGTVLILLAGRF [RPL6A]	NOT MET
QDGGIMGSLINGITLAL [SKI6]	MET
LALGCHFQDQKNKKIEV [POP7]	NOT MET
PLNKPLLTEELAKSGST [TAF14]	NOT MET
ANIELTWAEGTFEQFKD [RPC37]	MET
DADEKSSNLYETIIEAD [YJR042W/NUP85]	NOT MET
KAEFSKEMTLQKNMNDL [YIL149C/MLP2]	MET
NNGDKDHLKLVSLFSNL [YIL149C/MLP2]	NOT MET
VVFAVEKLITSKLLVPQ [PRE10]	NOT MET
STLEPTLRKELEQIQVQ [YIL149C/MLP2]	NOT MET
PQPLFMEDPPSTVSGEL [YMR153W/NUP53]	MET
DFDLLNKTLTFETETEV [FAS1]	MET
LRDTFIELDQVLNMLYW [RPO21]	NOT MET
ILINTARIHAQNYLKTY [PRE9]	NOT MET

---

- assay: protein stability index of a GFP-peptide fusion (yeast GPS) (PSI 1-4); higher = more stable; sorted into four equal gates, so the index is relative within each strain
- protocolConditions: doa10∆
Measured protein stability index of individual entries

chainSequence	protein stability index
KERNSLKKLKAMNDACY [BRR2]	3.18
VKLGNIWKESLIELSGG [SMC2]	2.22
GDYSQATVLSRKILKKT [RPN5]	2.68
PQQAQMQQAQFQAQQAQ [SNF2]	2.94
KAKKLIQSLPPTLKVNR [RPL38]	2.13
YKYKMRYVYAHFPINVN [RPL9A]	2.29
KDNAKISNNLALVFAAL [SRP68]	2.24
NIGTPSFNMAQIPQQLY [SNF5]	1.93
ATHLPKDNVEHLVMRAI [RPN9]	2.88
PQRLTVLRLATNKGPLA [MCD1]	2.78
ITLLTRQRELLIAHQRS [GRR1]	2.18
NAKRSHMMKRWGYQMVW [POP1]	1.97
ALLNFVLPKIFNSVKSF [SNF2]	2.44
DTKNLYVIKALQSLTSK [RPS10A]	1.75
VKFYEIFNFDQLVEITE [SRB8]	1.24
ESKDSIQDLIVKLKQQK [SMC3]	3.35
RIIEKSVRRSGALDVEG [RRP45]	2.43
TNWIIYPLWVMAKQLIR [CSN12]	1.39
GTLDKNSQTVSGTPITQ [SNF2]	2.83
TQLSYLISSSLSNLSKD [YCS4]	1.7
GEIGDFFSSDWRFLQIL [POP1]	2.73
KEAVFKSLGVKSLGGGA [FAS2]	3.26
NLFKINSIDVPIRINST [YMR129W/POM152]	1.89
ACHVEVPYVLMGQIATF [COB]	2.08
LAAERKVTSTLLEQDTS [PRE9]	2.46
ALAFCEIGITQQRIVSA [RRP4]	1.71
MSRDAPIKADKDYSQIL [RPN5]	2.97
VKGLLNTYKRLVIGIFK [YJL039C/NUP192]	2.53
KSKKSWLNRLNNWLFGW [YMR153W/NUP53]	2.81
QPKRNLSRYVKWPEYVR [RPL8A]	2.87

---

- assay: protein stability index of a GFP-peptide fusion (yeast GPS) (PSI 1-4); higher = more stable; sorted into four equal gates, so the index is relative within each strain
- protocolConditions: pdr5∆
Measured protein stability index of individual entries

chainSequence	protein stability index
PTPAIIKPKPLWSGKQI [RPO21]	2.5
QQLDSFNQFVDYTLQDI [RPB2]	2.64
QSNEDTFLPSYMKFSNK [RRI2]	3.05
IRFVCLSNCLANARDFG [BRR2]	1.81
LTKAQKYLDQVLDHQRA [RPL17B]	2.96
KSNSTGNISSSTVKKKD [REC8]	2.96
PLQNIHVRKVKLLKQPK [RPS1A]	2.82
LIPTIFRYITTWENEFL [PRP8]	2.04
GKLEVPGYVDIVKTSSG [RPS19A]	2.85
PLILTPPQLANQQQPPQ [SNF11]	1.93
IEPELFNGYNPEKKEMI [FAS2]	3.25
VSSESSDEAIIPVNKRR [SIR3]	2.98
HLKHENANDETTAVEDE [RPB4]	3.08
HCGALNGVVKKAAAGAG [RPO31]	2.38
FTAGARAKIVKAGGECI [RPL18A]	1.27

---

- assay: protein stability index of a GFP-peptide fusion (yeast GPS) (PSI 1-4); higher = more stable; sorted into four equal gates, so the index is relative within each strain
- protocolConditions: san1∆

chainSequence	protein stability index
GGNSNKSPPQFFYNISS [SIN4]	2.76
VQLSPSNPQHIIQPFLD [RGR1]	2.51
LTRQPTEGRSRDGGLRL [RET1]	2.06
KQKSWVPSYIHVEKERA [YIL149C/MLP2]	2.12
AQLAKAKTELNEVSLAI [SMC2]	1.82
ALSLLYHLLNYDPIKRI [SSN3]	2.39
VLEDVYRCFAQLELRQL [RRI2]	2.5
QFVETIVSKSIEMYVQE [RPN2]	1.05
KLTDEQSSLDVAGLEDK [SIR3]	2.75
EEIPINSSEQESDYEPN [SIR3]	3
TPPAIEHKPVSPDKIGT [SSN2]	3.12
SQPTAAGGPDMTTPQNI [DSN1]	1.89
ENPTDNFIIWINSIDTT [GRR1]	2.61
VQNSTLAQLTSKLIPEV [RPS1B]	2.27
QWLIMLGICTHLGCVPI [RIP1]	1.29
NSNINTLTASPDGTLIA [ASC1]	2.88
REKNALKRLAWQYIVID [ISW2]	1.76
LGITGLATDVTTLNEMF [PUP3]	2.24
NTEITQKSSKENIENEE [ECM29]	2.76
SNAVTQTNIWEENWDDV [SEM1]	3.32
KLSISNAASQQPTPRSA [GAL11]	2.73
LQDEVMNIKPVQKQTRA [RPS2]	2.42
SRNFSTRDEETTKLAFL [SIR4]	3.03
KELFGEDEDEDLFGDSN [SSN2]	3.21
NMTTIADRNDDDEGSFA [SRB6]	3.33
LRRRTASHNVRRIPKRM [POP1]	2.85
KKIREIYRYDEMSNKVL [BRR2]	2.62
ASLVPEGNQGSLQEDVS [MED8]	2.9
QRKTNGASNGDDSNGGN [BRN1]	3.71
KLQFETDRLSTTQRRYE [SMC1]	3.12
QSSEDVITIKSRIRVKI [RPB7]	2.51

---

Measured protein stability index of individual entries
- assay: protein stability index of a GFP-peptide fusion (yeast GPS) (PSI 1-4); higher = more stable; sorted into four equal gates, so the index is relative within each strain
- protocolConditions: san1∆

chainSequence	protein stability index
TLGNLIRAELLNDRKVL [RPB11]	3.08
IRIYDLGKKKATVDEFP [RPL10]	1.21
KPSNGKGSRKSSKAATP [SNF12]	3.24
LYHHTTKTILSGTDGST [SRP72]	2.49
PKDYIKKLLEVHDIFSK [CDC53]	1.75
APTGSGKTNIALLTVLK [BRR2]	3.35
QLYFQKNGAQDLVLQIL [RRI2]	2.32
PDAQNELPKFILSDSPL [DIS3]	2.87

---

- assay: protein stability index of a GFP-peptide fusion (yeast GPS) (PSI 1-4); higher = more stable; sorted into four equal gates, so the index is relative within each strain
- protocolConditions: ubr1∆
Rule: protein stability index under 3 gives f, otherwise t.

chainSequence	categoryLabel
KMELVYVSDSDDSSSDN [SIR4]	f
KELVECHLYSQRMHAIH [NNF1]	f
GQSEASLLNLLNISPFT [RPP0]	f
TRSHFNALYDTLLESNL [RPN6]	f
ASAASEAIRDPKNSSSP [SSN8]	t
QPNEISFKYLSNNDEDD [RGR1]	f
FILELEHKTPELISFKE [YIL149C/MLP2]	t
TSIANAFRRIMISEVPS [RPC40]	f
LPSEERIQKIISKRKEE [YIL149C/MLP2]	f
TSQHSDSLTQNNNNAPI [YOR098C/NUP1]	f
ADTIDHDELIDSIPRDV [YGL172W/NUP49]	f
FPESIWKDFTVEIAFLF [YCG1]	f
